# test summary: Volume of distribution in steady state in Han Wistar rat at 2.5 umol/kg, iv
# Assay type: ADME, organism-based
# particulars: in vivo, read-out: Vdss
assay endpoint: Vd
Quote the value and follow it with the unit of measurement.

Recorded Vd (compound CCNC(=O)c1ccc(CN2CCC(c3ccc(C(=O)Nc4ccccc4N)cc3)CC2)cc1 ): 3.5 L/kg

---

# test summary: Unbound ligand in Beagle dog plasma at 3 umol/kg, po
# Assay type: ADME, organism-based, Canis lupus familiaris
# particulars: at 3 µmol/kg
assay endpoint: fraction unbound
Number only, no unit.

Recorded fraction unbound (compound CCNC(=O)c1ccc(CN2CCC(c3ccc(C(=O)Nc4ccccc4N)cc3)CC2)cc1 ): 0.33
